system: SK-MEL-5 TRPM1-promoter luciferase reporter, 24 h; assay: reducers of TRPM1 reporter luminescence – cell-based, SK-MEL-5, dry powder samples, set 3, MITF inhibitor project, dose response (AID 624259)
AC50 values, listed per item
reported.endpoint: AC50

{"compound": "Cc1ccc(C(=O)NC2=C(c3ccccc3)C(=O)c3ccccc3C2=O)o1", "result.value": "9.24 µM"}
{"compound": "C=CCNC1=C(N2CCN(CC)CC2)C(=O)c2ccccc2C1=O", "result.value": "11.3 µM"}
{"compound": "COc1ccc(C2=C(NC(C)=O)C(=O)c3ccccc3C2=O)cc1", "result.value": "6.89 µM"}
{"compound": "C=CCNC1=C(NCCN(CC)CC)C(=O)c2ccccc2C1=O", "result.value": "3.05 µM"}
{"compound": "O=C(NC1=C(c2ccccc2)C(=O)c2ccccc2C1=O)c1ccccc1", "result.value": "10.5 µM"}
{"compound": "O=C(NC1=C(N2CCOCC2)C(=O)c2ccccc2C1=O)c1ccccc1", "result.value": "11.1 µM"}
{"compound": "C=C1C(=O)OC2C1CC/C(C)=C\\CCC1(C)OC21 (stereo not given)", "result.value": "7.5 µM"}
{"compound": "O=C1C(NS(=O)(=O)c2ccc(Br)cc2)=C(N2CCOCC2)C(=O)c2ccccc21", "result.value": "13.2 µM"}
{"compound": "O=C1C(NS(=O)(=O)c2ccc(Br)cc2)=C(N2CCSCC2)C(=O)c2ccccc21", "result.value": "35.5 µM"}
{"compound": "COc1cccc(-c2cc(C(=O)NC3=C(Cl)C(=O)c4ccccc4C3=O)ccc2OC)c1", "result.value": "10.4 µM"}
